Reported values of RAM network inhibition for individual entries
Assay: RAM signaling pathway blockade in yeast – S. cerevisiae, Pdr1DBD-CYC8 efflux-inhibited sensitized strain, primary screen (AID 1298);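 also: 0% = DMSO untreated cells without growth and 100% = 10 µM 1-NA-PP1 full growth; higher means more yeast growth rescued from 5-FOA killing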
Details: S. cerevisiae cbk1-as DSE1-URA3 strain, 5-FOA growth OD615, 2 d; at 50 µM; active compounds read high
Experimental Endpoint: RAM network inhibition (%)

> print(dat)
                                    molecule   experimental.endpoint  value.unit  endpoint.value
 1  O=C(c1ccc(Cn2c(=O)[nH]c3ccccc3c2=O)cc1)N1CCN(c2ccccn2)CC1  RAM network inhibition           %            8.38
 2         Cc1ccc(C(=O)c2ccccc2C(=O)O)c(O)c1  RAM network inhibition           %            5.69
 3  Cn1c(=O)oc2cc(S(=O)(=O)N3CCCC(C(=O)N4CCn5c4nc4ccccc45)C3)ccc21 (stereo not given)  RAM network inhibition           %            1.49
 4     CC1CCN(CCCn2c(=S)[nH]c3ccccc3c2=O)CC1  RAM network inhibition           %            0.66
 5  Cc1nnc(NC(=O)CSc2nnc(CNC(=O)c3ccccc3)n2-c2ccccc2)s1  RAM network inhibition           %            3.59
 6          CC(C)(C)SCCNS(=O)(=O)c1ccc(F)cc1  RAM network inhibition           %            0.56
 7  CC(=O)NCC(=O)N(c1ccccc1)C1(C(=O)NC2CCCCC2)CCCCC1  RAM network inhibition           %            -0.7
 8      CCn1c(=NC(=O)CSC(C)=O)sc2cc(OC)ccc21  RAM network inhibition           %            2.46
 9  COc1ccccc1OCC(=O)Nc1ccc(S(=O)(=O)N2CCCCCC2)cc1  RAM network inhibition           %            10.1
10              CC1(C)NC(C)(C)c2nonc2/C1=N\O  RAM network inhibition           %           -0.43

====

Attribute: growth inhibition
Experiment: OD615 S. cerevisiae growth inhibition, permissive medium, pilot counter-assay, permissive growth control for S. cerevisiae lifespan shortening project (AID 705)
Conditions: OD615, 24 h, at 10 µM, active compounds read high
Activity calls are given as the source filed them.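 Rule for the calls: active = growth inhibition above 25% in both replicates, a cutoff set 3 SD above the mean; inconclusive = above 25% in only one replicate; inactive = the rest.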
Experimental Endpoint: growth inhibition

> print(dat)
                                    compound  experimental.endpoint      endpoint.value
 1  COc1cccc(N2CCN(C(=O)CN(C)S(=O)(=O)c3ccc4c(c3)CCC(=O)N4)CC2)c1      growth inhibition   -2.86% (inactive)
 2  CC1CCCCN1C(=O)CSCC(=O)Nc1nc(-c2cccs2)cs1 (stereo unspecified)      growth inhibition    2.07% (inactive)
 3  Cc1cccc(N(C(=O)Nc2ccccc2)C2=NCC(C)S2)c1 (stereo unspecified)      growth inhibition   -14.6% (inactive)
 4       CCOC(=O)c1c(N=CN(C)C)c(C#N)n2c1CCC2      growth inhibition   -15.1% (inactive)
 5          Cc1cc(Nc2cc(F)ccc2C)n2nc(C)nc2n1      growth inhibition   -12.4% (inactive)
 6  Cc1ccc(-n2c3c(cc(C(=O)NCc4ccco4)c2=O)C(=O)CC(C)(C)C3)cc1      growth inhibition   -5.76% (inactive)
 7                 Cn1cnnc1SCc1ccc(C#N)cc1Cl      growth inhibition    -9.5% (inactive)
 8    Cc1cc(C)c(S(=O)(=O)Nc2ccc(O)cc2)c(C)c1      growth inhibition      -9% (inactive)
 9      Cc1cc(N2CCOCC2)nc(SCC(=O)c2ccccc2)n1      growth inhibition   -16.5% (inactive)
10  CCOc1ccc(CC(=O)N2CCN(c3ccc(N4CCOCC4)nn3)CC2)cc1OCC      growth inhibition   -1.33% (inactive)
11  CCCCn1c(=O)n(CC(=O)Nc2ccc(C)c(Cl)c2)c(=O)c2c1ncn2Cc1ccco1      growth inhibition   -2.46% (inactive)
12        COC(=O)Cn1c(CCC(=O)O)ccc1-c1ccccc1      growth inhibition    -1.1% (inactive)
13  C=CCOc1cccc(C2c3c(oc4ccccc4c3=O)C(=O)N2c2ccccn2)c1 (stereo unspecified)      growth inhibition    -8.5% (inactive)
14  Cc1c(C(=O)NCc2ccc3c(c2)OCO3)oc2ccc(S(=O)(=O)N3CCCCCC3)cc12      growth inhibition     -14% (inactive)
15  O=S(=O)(c1cccc2cccnc12)N1CCN(Cc2ccc3c(c2)OCO3)CC1      growth inhibition   -7.45% (inactive)
16                O=C(O)c1ccccc1C(=O)c1cccs1      growth inhibition   -14.9% (inactive)
17       O=C(NCCCNCc1ccccc1)c1ccc(/C=N/O)nc1      growth inhibition   -8.54% (inactive)
18  O=C(c1cc(-c2ccc(O)cc2)on1)N1CCCc2ccccc21      growth inhibition   -15.5% (inactive)
19  COc1ccc(OC)c2sc(NC(=O)CCS(=O)(=O)c3ccccc3)nc12      growth inhibition   -8.91% (inactive)
20  CCOC(=O)N1CCN(C(=O)CSc2nc3c(cnn3-c3ccc(C)cc3)c(=O)[nH]2)CC1      growth inhibition  -0.175% (inactive)
21       CSc1ncccc1C(=O)OCC(=O)c1cc2ccccc2o1      growth inhibition   -12.5% (inactive)
22             c1ccc(-c2cnc(-c3cccnc3)o2)cc1      growth inhibition    0.08% (inactive)
23  Cc1onc(-c2ccccc2Cl)c1C(=O)N1CCCCC1C(=O)O (stereo unspecified)      growth inhibition    0.56% (inactive)
24  CN(C)c1ccc(C2N(c3ccc(Cl)cc3)C(=O)C3CCCN32)cc1 (stereo unspecified)      growth inhibition   -2.63% (inactive)
25  CCc1nn(CC(=O)NCCCN2CCCC2=O)c(=O)c2cc3sccc3n12      growth inhibition   -8.81% (inactive)
26               CSC1=NCCN1C(=O)Cc1ccc(F)cc1      growth inhibition   -0.72% (inactive)
27  C=CCn1cc(C(=O)NCc2cccnc2)c(=O)c2cc(S(=O)(=O)N(CC)CC)ccc21      growth inhibition   -7.53% (inactive)
28               CN(C)c1cc(-c2ccccc2)nc(N)n1      growth inhibition   -13.3% (inactive)
29  C=C(C)Cn1c(N2CCCC2)nc2c1c(=O)[nH]c(=O)n2C      growth inhibition   -1.91% (inactive)
30  COC(=O)COC(=O)CC(CC(N)=O)c1ccccc1 (stereo unspecified)      growth inhibition   -8.58% (inactive)
31  COC(=O)C1=C(C)OC(N)=C(C#N)C1c1ccccc1F (stereo unspecified)      growth inhibition   -9.68% (inactive)
32        Nc1nc2c(c3c1c(=O)oc1ccccc13)CCCCC2      growth inhibition   -4.79% (inactive)
33  O=C1c2ccccc2C(=O)N1Cc1nc2ccccc2c(=O)n1CCCn1ccnc1      growth inhibition   -3.57% (inactive)
34  C=CCOc1cccc(C2C(C(=O)c3ccco3)=C(O)C(=O)N2CCN2CCOCC2)c1 (stereo unspecified)      growth inhibition   -9.71% (inactive)
35  CCN1CCCC(NC(=O)c2scc3c2CCCC3)C1 (stereo unspecified)      growth inhibition   -8.03% (inactive)
36  O=C(NCCN1CCOCC1)c1ccc(CS(=O)(=O)c2ccc(Br)cc2)o1      growth inhibition   0.315% (inactive)

====

Reported viability increase values are given for each entry in this list.
Experiment: viability gain of MRP-1-high H69AR cells under doxorubicin, pilot screen, MRP-1 activator project, CellTiter-Glo, duplicate (AID 807);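 also: compound pretreatment 18-22 h then 72 h combined with doxorubicin; 0% = doxorubicin alone and 100% = vehicle without doxorubicin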
Conditions: H69AR viability with doxorubicin, CellTiter-Glo luminescence; at 10 µM; active compounds read high
Experimental Endpoint: viability increase (%)

> print(dat)
                                    molecule  value.unit  endpoint.value
 1           O=C(NCc1ccc2c(c1)OCO2)Oc1ccccc1           %            0.33
 2  COc1ccc(-n2c(Cc3cc(=O)[nH]c(=O)[nH]3)nnc2SCC(=O)N2CCCC2)cc1           %            0.36
 3  O=C(Nc1nc2ccccc2n1CCOc1ccc(Cl)cc1)c1ccco1           %            -3.5
 4  CCc1nn(CC(=O)NCCCN2CCCC2=O)c(=O)c2cc3sccc3n12           %           -2.31
 5  CCc1nnc(NC(=O)CSc2nc3c(c(=O)n2CC)SC(C)C3)s1 (stereo unspecified)           %           -0.18
 6             Clc1cc(NCc2cccs2)ccc1N1CCOCC1           %           -3.46
 7  CCc1ccccc1NC1c2ccccc2C(=O)N1Cc1ccco1 (stereo unspecified)           %           -4.71
 8  O=C1c2oc3ccc(F)cc3c(=O)c2C(c2ccncc2)N1CCN1CCOCC1 (stereo unspecified)           %            0.53
 9  Cc1ccc(Cl)cc1N1CCN(C(=O)C2CCN(c3nnc(-n4cccc4)s3)CC2)CC1           %            2.36
10             CC(=O)Nc1ccc(OC/C=C(\C)Cl)cc1           %            -1.2
11            CCOCC(=O)NCc1ccc2c(c1)cc(C)n2C           %           -1.45
12  CC1CCc2c(sc3ncnc(NCCN4CCOCC4)c23)C1 (stereo unspecified)           %           -6.47
13      CC(=O)c1ccc(Nc2cc(C)nc3nc(C)nn23)cc1           %            -3.3
14           CCOC(=O)c1c(N)sc2c(O)c(Br)ccc12           %           -0.49
15  CCCC(=O)N1CCN(C2=NS(=O)(=O)c3ccccc32)CC1           %           -0.68
16  Cn1cccc1Cc1nnc(SCC(=O)NC2CCCC2)n1-c1ccc(F)cc1           %           -2.12
17      Cc1onc(-c2ccccc2)c1C(=O)Nc1ccccc1C#N           %           -2.87
18  O=C(C1CCC(CNc2c(N3CCCCC3)c(=O)c2=O)CC1)N1CCCCC1 (stereo unspecified)           %           -1.79
19  O=C(Cn1nc(C(=O)O)c2ccccc2c1=O)NCC1CCCO1 (stereo unspecified)           %           -0.44
20       CCN(Cc1ccccc1)C(=O)Cn1cc2c(n1)CCCC2           %            1.91
21   COc1cc(C(=O)Nc2ccc(N(C)C)cc2)cc(OC)c1OC           %           -5.23
22       N#Cc1nc(COc2ccc(Br)cc2)oc1N1CCCCCC1           %            4.39
23  CC1(C)C(c2ccc(Cl)cc2)=[N+]([O-])C2(CCCC/C2=N\O)N1O (stereo unspecified)           %            1.21
24  O=C(CN(c1ccc(F)cc1)S(=O)(=O)c1ccc2c(c1)OCCO2)N1CCOCC1           %           -2.08
25  CC(=O)Nc1ccc(C2Nc3ccccc3C(=O)N2C2CCCCC2)cc1 (stereo unspecified)           %           -1.42
26  CCOC(=O)C1CCN(C(=O)CS(=O)Cc2nc(-c3ccc(C)cc3)oc2C)CC1 (stereo unspecified)           %           -3.68
27  O=C(Nc1nc(-c2cccs2)cs1)c1ccc(S(=O)(=O)N2CCCCC2)cc1           %           -3.02
28           Cc1cccc(NCc2nc(-c3ccccc3)no2)c1           %            2.88
29  Cc1ccc(C(=O)Nc2ccc(S(=O)(=O)N3CCN(C)CC3)cc2)o1           %           -0.32
30  COc1ccc(-c2nnc(SCC(=O)Nc3cc(F)ccc3C)o2)cc1           %            1.69
31  O=C(O)CC1C(=O)NCCN1CCCc1ccccc1 (stereo unspecified)           %           -0.23
32  CC1CCCCN1CCNC(=O)c1cc2c(=O)n(C)c3ccccc3c2n1C (stereo unspecified)           %           -6.71
33  CCOC(=O)c1ccccc1NC(=O)CN(c1ccccc1OCC)S(C)(=O)=O           %           -1.57
34  CC1c2[nH]c3ccccc3c2CCN1S(C)(=O)=O (stereo unspecified)           %           -0.49
35  CCOC(=O)N1CCN(C(=O)CSc2nc3c([nH]c4ccccc43)c(=O)n2C)CC1           %           -4.86
36        COCCN(CCOC)C(=O)c1cc2sc3ccccc3c2s1           %            0.72
